The values you see were collected from patent US20230113802A1.

Field: concentration at 24 h. Provide a value for each of the compounds that follow.
- measurement.protocol: GT localization in healthy versus 4T1 tumor bearing lung tissue
- Assay type: in vivo, BALB/c mice
- study.conditions: female, BALB/c, mouse, lung, intravenous, 24 hours after DcNP, Healthy mice; read-out: Lung
- Description: Female BALB/c mice were injected with 2×10^5 4 T1 metastatic breast cancer cells that express luciferase as a marker intravenously by tail vein on day 0. Stable expression of luciferase in these cells allows for bioluminescent monitoring of tumor growth and metastasis. Over a 14-day period, mouse behavior and health conditions were monitored daily and body weight measurements were taken every 2 days. […]
Give bare numbers, in ng/g.

{"smiles.record": "Nc1ccn([C@@H]2O[C@H](CO)[C@@H](O)C2(F)F)c(=O)n1", "concentration at 24 h (ng/g)": 300}

Please look at the following compound next.
Short answer for `CC(=O)O[C@H]1C(=O)[C@@]2(C)[C@H]([C@H](OC(=O)c3ccccc3)[C@]3(O)C[C@H](OC(=O)[C@H](O)[C@@H](NC(=O)c4ccccc4)c4ccccc4)C(C)=C1C3(C)C)[C@]1(OC(C)=O)CO[C@@H]1C[C@@H]2O` : concentration at 24 h was 60
